- method: Cytotoxicity against human HepG2 cells assessed as cell viability at 6.25 to 100 ug/ml by MTT assay
- Format: cell-based
- conditionNotes: HepG2 cells, read-out: Activity
readout: viability

Could you tell me which viability is on file for "COc1cc(Cn2ccnc2)c2cc3[n+](cc2c1O)CCc1cc2c(cc1-3)OCO2.[Cl-]" ?
> 87%

----------
- Test system: Aspergillus flavus
- method: Antimicrobial activity against Aspergillus flavus ATCC 204304 incubated for 24 hrs by NCCLS protocol based method
- Assay type: functional
- conditionNotes: ATCC 204304, 24 h
Reported MIC80 values follow for various compounds
Give the quantity in µg/mL, number only.

Consider the following illustrative entries.
- compound: "CCCc1nccn1Cc1cc(OC)c(O)c2c[n+]3c(cc12)-c1cc2c(cc1CC3)OCO2.[Cl-]"
  readout: "MIC80"
  valueObserved: 128
- compound: "COc1ccc2cc3[n+](cc2c1OC)CCc1cc2c(cc1-3)OCO2.[Cl-] [BERBERINE CHLORIDE]"
  readout: "MIC80"
  valueObserved: 512
- compound: "CCc1nc(C)cn1Cc1cc(OC)c(O)c2c[n+]3c(cc12)-c1cc2c(cc1CC3)OCO2.[Cl-]"
  readout: "MIC80"
  valueObserved: 128

Entry "CCc1nccn1Cc1cc(OC)c(O)c2c[n+]3c(cc12)-c1cc2c(cc1CC3)OCO2.[Cl-]" : reported MIC80 = ?
128

----------
Overview of recorded MIC for various molecules
- Test system: Micrococcus luteus
- method: Antimicrobial activity against Micrococcus luteus ATCC 4698 incubated for 24 hrs by NCCLS protocol based method
- Format: functional
- conditionNotes: ATCC 4698, 24 h
Phrase the answer as number then unit, nothing more needed.

The following molecules have reported results that may help.
- smilesString: "CCc1nc(C)cn1Cc1cc(OC)c(O)c2c[n+]3c(cc12)-c1cc2c(cc1CC3)OCO2.[Cl-]"
  studySystem: "Micrococcus luteus"
  valueObserved: "64 µg/mL"
- smilesString: "COc1cc(Cn2ccnc2C)c2cc3[n+](cc2c1O)CCc1cc2c(cc1-3)OCO2.[Cl-]"
  studySystem: "Micrococcus luteus"
  valueObserved: "16 µg/mL"
- smilesString: "COc1cc(Cn2cc(C)nc2C)c2cc3[n+](cc2c1O)CCc1cc2c(cc1-3)OCO2.[Cl-]"
  studySystem: "Micrococcus luteus"
  valueObserved: "64 µg/mL"

Field request: MIC | item: "CCCCc1nccn1Cc1cc(OC)c(O)c2c[n+]3c(cc12)-c1cc2c(cc1CC3)OCO2.[Cl-]"
32 µg/mL

Thanks! And "CCn1cc(C(=O)O)c(=O)c2cc(F)c(N3CCNCC3)cc21" ?
2 µg/mL

----------
Each entry below carries its reported MIC80.
- Tested on: Aspergillus flavus
- method: Antimicrobial activity against Aspergillus flavus ATCC 204304 incubated for 24 hrs by NCCLS protocol based method
- Type: functional
- conditionNotes: ATCC 204304, 24 h
Provide only the numeric value, understood in µg/mL.

These solved cases illustrate the format of a correct answer.
- molecule: "CCCCCCCCCCCc1nccn1Cc1cc(OC)c(O)c2c[n+]3c(cc12)-c1cc2c(cc1CC3)OCO2.[Cl-]"
  measurementUnits: "µg/mL"
  MIC80: 256
- molecule: "OC(Cn1cncn1)(Cn1cncn1)c1ccc(F)cc1F [FLUCONAZOLE]"
  measurementUnits: "µg/mL"
  MIC80: 256
- molecule: "COc1cc(Cn2ccnc2)c2cc3[n+](cc2c1O)CCc1cc2c(cc1-3)OCO2.[Cl-]"
  measurementUnits: "µg/mL"
  MIC80: 64

GET /values?readout=MIC80&system=Aspergillus flavus&item= "COc1cc(Cn2cnc(C)c2)c2cc3[n+](cc2c1O)CCc1cc2c(cc1-3)OCO2.[Cl-]"
64

One more molecule: "COc1cc(Cn2ccnc2C)c2cc3[n+](cc2c1O)CCc1cc2c(cc1-3)OCO2.[Cl-]"
32

Lookup "CCCCCCCCCCCCCCCCCc1nccn1Cc1cc(OC)c(O)c2c[n+]3c(cc12)-c1cc2c(cc1CC3)OCO2.[Cl-]"
256

Another molecule to check: "COc1cc(Cn2cc(C)nc2C)c2cc3[n+](cc2c1O)CCc1cc2c(cc1-3)OCO2.[Cl-]"
128

Entry "CCCCc1nccn1Cc1cc(OC)c(O)c2c[n+]3c(cc12)-c1cc2c(cc1CC3)OCO2.[Cl-]" please
64

----------
Form field: MIC (one value per entry).
- method: Antimicrobial activity against Eberthella typhosa ATCC 14028 incubated for 24 hrs by NCCLS protocol based method
- Assay type: functional
- conditionNotes: ATCC 14028, 24 h
Write it as a number; the unit µg/mL goes unstated.

In the examples that follow, each entry is paired with its recorded MIC.
- compound: "CCn1cc(C(=O)O)c(=O)c2cc(F)c(N3CCNCC3)cc21 [NORFLOXACIN]"
  measurementUnits: "µg/mL"
  MIC: 4
- compound: "COc1ccc2cc3[n+](cc2c1OC)CCc1cc2c(cc1-3)OCO2.[Cl-] [BERBERINE CHLORIDE]"
  measurementUnits: "µg/mL"
  MIC: 512

What value of measured MIC is listed for "COc1cc(Cn2ccnc2C)c2cc3[n+](cc2c1O)CCc1cc2c(cc1-3)OCO2.[Cl-]" ?
32

# iterate: "COc1cc(Cn2cnc(C)c2)c2cc3[n+](cc2c1O)CCc1cc2c(cc1-3)OCO2.[Cl-]"
64

Next: "CCCc1nccn1Cc1cc(OC)c(O)c2c[n+]3c(cc12)-c1cc2c(cc1CC3)OCO2.[Cl-]"
64

----------
- System: Pseudomonas aeruginosa
- method: Antimicrobial activity against Pseudomonas aeruginosa ATCC 27853 incubated for 24 hrs by NCCLS protocol based method
- Format: functional
- conditionNotes: ATCC 27853, 24 h
Each item that follows carries a reported MIC.
Unit µg/mL implied. Number only.

Worked cases, MIC given:
- compound: "CCCCCCCCCCCCCCCCCc1nccn1Cc1cc(OC)c(O)c2c[n+]3c(cc12)-c1cc2c(cc1CC3)OCO2.[Cl-]"
  readout: "MIC"
  valueObserved: 256
- compound: "CCCCCCCCCCCc1nccn1Cc1cc(OC)c(O)c2c[n+]3c(cc12)-c1cc2c(cc1CC3)OCO2.[Cl-]"
  readout: "MIC"
  valueObserved: 256
- compound: "CCCCc1nccn1Cc1cc(OC)c(O)c2c[n+]3c(cc12)-c1cc2c(cc1CC3)OCO2.[Cl-]"
  readout: "MIC"
  valueObserved: 128
- compound: "CCCc1nccn1Cc1cc(OC)c(O)c2c[n+]3c(cc12)-c1cc2c(cc1CC3)OCO2.[Cl-]"
  readout: "MIC"
  valueObserved: 128
- compound: "CCn1cc(C(=O)O)c(=O)c2cc(F)c(N3CCNCC3)cc21"
  readout: "MIC"
  valueObserved: 2
- compound: "COc1cc(Cn2ccnc2C)c2cc3[n+](cc2c1O)CCc1cc2c(cc1-3)OCO2.[Cl-]"
  readout: "MIC"
  valueObserved: 64
- compound: "CCc1nccn1Cc1cc(OC)c(O)c2c[n+]3c(cc12)-c1cc2c(cc1CC3)OCO2.[Cl-]"
  readout: "MIC"
  valueObserved: 64
- compound: "CCc1nc(C)cn1Cc1cc(OC)c(O)c2c[n+]3c(cc12)-c1cc2c(cc1CC3)OCO2.[Cl-]"
  readout: "MIC"
  valueObserved: 128
- compound: "COc1ccc2cc3[n+](cc2c1OC)CCc1cc2c(cc1-3)OCO2.[Cl-] [BERBERINE CHLORIDE]"
  readout: "MIC"
  valueObserved: 256
- compound: "COc1cc(Cn2ccnc2)c2cc3[n+](cc2c1O)CCc1cc2c(cc1-3)OCO2.[Cl-]"
  readout: "MIC"
  valueObserved: 64

Any idea what its MIC is? The compound is "COc1cc(Cn2cc(C)nc2C)c2cc3[n+](cc2c1O)CCc1cc2c(cc1-3)OCO2.[Cl-]"
128

"COc1cc(Cn2cnc(C)c2)c2cc3[n+](cc2c1O)CCc1cc2c(cc1-3)OCO2.[Cl-]" , same question.
128

----------
In this section, each of the molecules is paired with its reported MIC.
- method: Antimicrobial activity against Eberthella typhosa ATCC 14028 incubated for 24 hrs by NCCLS protocol based method
- Assay type: functional
- conditionNotes: ATCC 14028, 24 h
Please answer using a numeric value trailed by its unit.

Example molecules with recorded MIC:
- smilesString: "CCc1nc(C)cn1Cc1cc(OC)c(O)c2c[n+]3c(cc12)-c1cc2c(cc1CC3)OCO2.[Cl-]"
  MIC: "128 µg/mL"
- smilesString: "COc1cc(Cn2ccnc2)c2cc3[n+](cc2c1O)CCc1cc2c(cc1-3)OCO2.[Cl-]"
  MIC: "1 µg/mL"
- smilesString: "CCCCCCCCCCCc1nccn1Cc1cc(OC)c(O)c2c[n+]3c(cc12)-c1cc2c(cc1CC3)OCO2.[Cl-]"
  MIC: "256 µg/mL"

// below: MIC requested for another molecule
I would be grateful if you could share the reported MIC for "COc1cc(Cn2cc(C)nc2C)c2cc3[n+](cc2c1O)CCc1cc2c(cc1-3)OCO2.[Cl-]" .
128 µg/mL
